# test.method.notes: qHTS drug screen for cell cycle checkpoint inhibitors in PARPi-resistant BRCA-mutant ovarian cancer cell lines. (AID 1963452)
# measurement.context: PEO1/OlaR viability, CellTiter-Glo luminescence, 96 h; measured here: PEO1 parental Z-AUC; stronger effect = lower value
The entries below come with measured Z-AUC values attached.

compound	Z-AUC
N#Cc1ccc(Oc2ccc3c(c2)COB3O)cc1	0.583
Cc1csc(-c2nnc(Nc3ccc(Oc4ncccc4-c4ccnc(N)n4)cc3)c3ccccc23)c1	-0.785
CO[C@@H]1C(N(C)C(=O)c2ccccc2)C[C@H]2O[C@]1(C)n1c3ccccc3c3c4c(c5c6ccccc6n2c5c31)C(=O)NC4=O (stereo partly drawn)	0.0888
COc1cc2c(cc1OC)CC(=O)N(CCCN(C)C[C@H]1Cc3cc(OC)c(OC)cc31)CC2	0.523
Cc1ccc(C(=O)N(CCCN)[C@@H](c2oc3cc(Cl)ccc3c(=O)c2Cc2ccccc2)C(C)C)cc1	-2.6
NC[C@H]1O[C@H](O[C@@H]2[C@@H](O)[C@@H](O[C@H]3O[C@H](CO)[C@@H](O)[C@H](N)[C@@H]3O)[C@H](N)C[C@@H]2N)[C@H](O)[C@@H](O)[C@H]1O	0.776
Cc1nc(C(=O)NCC(=O)O)c(O)c2ccc(Oc3ccccc3)cc12	0.88
Cc1ccccc1C(C(=O)NC1CCCCC1)N(C(=O)CNc1ccc(C#N)cc1)c1cccc(F)c1 (stereo not drawn)	0.0819

====

# System: Hek293T
# test.method.notes: Primary qHTS to identify gynecologic anti-cancer compounds using libraries of approved drugs and bioactive compounds (AID 1345084); further: nearly all actives have a fitted effect of over 55% in size
# measurement.context: Gynecologic cancer cell panel viability, ATPlite luminescence, 48 h, control line for the selectivity index; series mostly up to 57.5 µM
Results filed as inconclusive are left out. Active and inactive are the calls of the source. Calls come from the whole dose curve; as a rule, active = well fitted cell-killing curve with a large enough effect; inconclusive = small, poorly fitted or top-dose-only effect, or effect the other way; inactive = flat fitted curve, though single readings scatter.
Classes used: 1 (active), 0 (inactive)

compound	group
O=C(Nc1ccc(OC(F)(F)F)cc1)c1sccc1NCc1ccnc2ccccc12	0
COc1cc(Nc2nc3ccccc3nc2NS(=O)(=O)c2ccc(NC(=O)c3ccc(C)c(OC)c3)cc2)cc(OC)c1	0
CCN1C[C@H](C)n2c(c(O)c3c(=O)n(Cc4ccc(F)c(Cl)c4)nc(C(=O)NC)c32)C1=O	0
CCc1cccc(CC)c1NC(=O)N1Cc2[nH]nc(NC(=O)c3ccc(N4CCN(C)CC4)cc3)c2C1	0
CC[C@H](CC#N)OC(=O)N[C@@H](C)c1cccc(NC(=O)Nc2ccc(-c3cnco3)c(OC)c2)c1	1
COc1ccc(-c2nc3ccc(C4=NNC(=O)CC4C)cc3[nH]2)cc1 (centres undefined)	0
CCCCn1c(=O)n(Cc2ccccc2F)c(=O)c2[nH]c(Cc3ccc(NC(C)=O)cc3)nc21	0
O=C(Nc1cccc2c(=O)cc(-c3nn[nH]n3)oc12)c1ccc(OCCCCc2ccccc2)cc1	0
CN1CCc2c(n(Cc3ccc(C(=O)NO)cc3)c3ccccc23)C1	0

====

# test.method.notes: qHTS of pediatric cancer cell lines to identify multiple opportunities for drug repurposing: Primary screen for SJ-GBM2 cells (AID 1347091)
# measurement.context: SJ-GBM2 viability, CellTiter-Glo luminescence, 48 h; series mostly up to 46 µM
Inconclusive results are not listed. Active and inactive are the calls of the source. Calls come from the whole dose curve; as a rule, active = well fitted cell-killing curve with a large enough effect; inconclusive = small, poorly fitted or top-dose-only effect; inactive = no such curve, though single readings can be large or run the other way.
Classes used: label 1 = active, label 0 = inactive

compound	group
CNC1CCC(N(Cc2cccc(-c3ccncc3)c2)C(=O)c2sc3ccccc3c2Cl)CC1 (stereo not given)	label 1
CCCCC(C)(C)[C@H](O)C=C[C@H]1[C@H](O)CC(=O)[C@H]1CC=CCCCC(=O)O	label 0
CC(C)(F)C[C@H](N[C@@H](c1ccc(-c2ccc(S(C)(=O)=O)cc2)cc1)C(F)(F)F)C(=O)NC1(C#N)CC1	label 1
CCOC(=O)N1c2ccc(C(F)(F)F)cc2[C@@H](N(Cc2cc(C(F)(F)F)cc(C(F)(F)F)c2)C(=O)OC)C[C@H]1CC	label 0
O=C(Nc1ncc(SCCN2CCCC2)s1)[C@]1(c2ccc(S(=O)(=O)C3CC3)cc2)C[C@@H]1C1CCCCC1	label 1
N#CC(c1ccnc(NCCc2cccnc2)n1)c1nc2ccccc2s1 (stereo not given)	label 1
Cc1ccc(C2=Nc3ccc(Cl)cc3OC2)cc1	label 1
CCC=CC[C@H]1C(=O)CC[C@@H]1CC(=O)OC	label 0
COc1ccc(-c2oc3c(CC=C(C)C)c(O)cc(O)c3c(=O)c2O)cc1	label 1
C[C@H]1O[C@@H](n2cc(F)c(=O)[nH]c2=O)[C@H](O)[C@H]1O	label 0
Cc1cnc(-c2cc(N3CCN(C(=O)CCS(C)(=O)=O)CC3)ncc2Cl)c(C)c1	label 0
COC(=O)[C@H](c1ccccc1Cl)N1CCc2sccc2C1	label 0
Cc1ccc(NC(=O)Nc2cc(C(F)(F)F)ccc2F)cc1Nc1ccc2c(c1)NC(=O)C2=Cc1ccc[nH]1	label 1
CC(=O)OCC(=O)[C@@]1(O)CC[C@H]2[C@@H]3CCC4=CC(=O)C=C[C@]4(C)[C@@H]3[C@@H](O)C[C@@]21C	label 0
CN1CCC[C@H]1CCO[C@](C)(c1ccccc1)c1ccc(Cl)cc1	label 0
CCC(C)SSc1ncc[nH]1 (stereo not given)	label 1
OCCn1cc(-c2ccc3c(c2)CCC3=NO)c(-c2ccncc2)n1	label 0
CC=C(C(=CC)c1ccc(O)cc1)c1ccc(O)cc1	label 1
NC(=O)c1nnn(Cc2cc(Cl)c(C(=O)c3ccc(Cl)cc3)c(Cl)c2)c1N	label 1
O=C(O)Cc1cccc(OCCCN(Cc2cccc(C(F)(F)F)c2Cl)CC(c2ccccc2)c2ccccc2)c1	label 1

// provenance: PubChem BioAssay (NCATS)
